# target-entity: D(1A) dopamine receptor (Rattus norvegicus, UniProt P18901)
# Sequence (P18901 whole entry): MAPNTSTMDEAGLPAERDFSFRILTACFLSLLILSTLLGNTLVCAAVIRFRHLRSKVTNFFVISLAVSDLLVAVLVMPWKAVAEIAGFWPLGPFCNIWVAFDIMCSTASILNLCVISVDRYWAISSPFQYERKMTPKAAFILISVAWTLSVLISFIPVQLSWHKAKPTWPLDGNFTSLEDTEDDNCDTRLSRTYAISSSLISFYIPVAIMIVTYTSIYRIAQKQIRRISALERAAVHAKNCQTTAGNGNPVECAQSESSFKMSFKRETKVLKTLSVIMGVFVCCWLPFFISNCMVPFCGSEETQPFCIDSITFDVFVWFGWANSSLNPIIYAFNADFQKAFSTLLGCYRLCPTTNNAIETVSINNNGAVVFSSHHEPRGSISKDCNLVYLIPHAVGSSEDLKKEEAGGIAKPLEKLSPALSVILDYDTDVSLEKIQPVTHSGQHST
# method: In vitro binding activity against Dopamine receptor D1 from homogenized rat brain, using [3H]SCH-23390 as the radioligand

| compound | target-entity | IC50, nM |
| --- | --- | --- |
| CCN(CC)C(=O)N[C@H]1C[C@@H]2c3cccc4[nH]cc(c34)C[C@H]2N(C)C1 [TERGURIDE] | D(1A) dopamine receptor (Rattus norvegicus, UniProt P18901) | 69 |

----------
# target-entity: D(1A) dopamine receptor (Rattus norvegicus)
# method: In vitro binding activity against dopamine D1 receptor from homogenized rat brain, using [3H]SCH-23390 as the radioligand
pIC50: −log10 of the molar value.

| compound | pIC50 |
| --- | --- |
| CCCN(CCC)C1CCc2cccc(O)c2C1 (racemic) | < 4.00 |
